Examples of compounds with documented NF-kB reporter follow.
# System: RAW-Dual (murine macrophage reporter line)
# assay explanation: NF-kB reporter (SEAP) activity fold change vs agonist alone; higher = enhanced NF-kB activity
# measurement parameters: modulator concentration 10 µM; agonist: LPS 0.1 ug/mL
parameter: NF-kB reporter

- CC(=Cc1ccccc1)CN1CC(C)OC(C)C1 (stereo not drawn): 0.788
- COc1ccc(-c2cc(=O)oc3cc(OCc4cc5c(cc4Cl)OCO5)ccc23)cc1: 0.829
- CCc1ccccc1N(CC(=O)Nc1ccc(Cl)cc1C)S(C)(=O)=O: 1.05
- COc1ccc([N+](=O)[O-])cc1NC(=O)c1ccccc1SC: 0.705
- CCOC(=O)C1=C(C)NC(C)=C(C(=O)OCC)C1c1ccc(N(C)C)cc1: 1.07
- Cc1ccc(-n2c(=O)c3c4c(sc3n3c(S)nnc23)CCCC4)cc1: 1.07
- CC(C)(C)c1cc(CCC(=O)NN)cc(C(C)(C)C)c1O: 0.816
- O=C(NCC(F)(F)F)c1ccc(OCC2CCOCC2)nc1: 0.87
- Cc1ccc(-n2ncnc2-c2ccccc2C)cc1Cl: 0.787
- O=C1c2ccccc2C(=O)C1c1ccccn1: 1.08
- COC(=O)C1=C(C)N(Cc2ccccc2)C(=O)C1=Cc1ccc(C)cc1: 0.655
- CC(COc1ccccc1)N(CCCl)Cc1ccccc1.Cl (stereo not drawn): 0.177
- COc1ccc(CC(=O)Nc2ccc(C)c(N3CCCCC3=O)c2)cc1OC: 1.18
- CCS(=O)(=O)O.COC(=O)c1ccc2c(c1)NC(=O)/C2=C(\Nc1ccc(N(C)C(=O)CN2CCN(C)CC2)cc1)c1ccccc1: 0.886
- Cc1ccc(C2(O)C=CC(C)(C(Cl)(Cl)Cl)C=C2)cc1 (stereo not drawn): 0.974
- COC(=O)C1=C(C)NC(C)=C(C(=O)OCC(C)C)C1c1ccccc1[N+](=O)[O-] (stereo not drawn): 0.81
- O=C(NCCc1csc(-c2ccc(F)cc2)n1)c1ccc(Br)cc1: 1.18
- c1ccc(CSc2nnc(-c3ccncc3)o2)cc1: 1.18
- COCC(C)(CNS(=O)(=O)c1ccccc1Br)OC (stereo not drawn): 1.13
- O=S(=O)(c1cccc2ccccc12)n1nnc2ccccc21: 1.03
- COc1ccc(C)c2sc(=NC(=O)c3ccccc3)n(C)c12: 1.17
- O=c1oc2c(O)c(O)cc3c(=O)oc4c(O)c(O)cc1c4c23: 0.944
- O=C1C2C3C=CC(C4CC34)C2C(=O)N1N=Cc1ccc(-c2ccc(Cl)cc2)o1 (stereo not drawn): 1.04
